- System: SW-620 colon
- EXPERIMENT NOTES: NCI tumour cell line growth inhibition, 48 h
READOUT TYPE: TGI

{"columns": ["COMPOUND", "EXPERIMENTAL VALUE"],
 "data": [
  ["COC(=O)C1(C(=O)OC)C/C(C)=C(/C)SCCCS1", "> 100 µM"]
]}

// fetch SW-620 colon TGI for O=[N+]([O-])/C(C(Cl)=C(Cl)Cl)=C(/Nc1ccccc1)SCc1ccccc1
49 µM

// fetch SW-620 colon TGI for C=C1C(=O)O[C@H]2[C@H]1CC/C(COC(=O)/C=C\C(=O)NCc1ccc(Cn3c(=O)sn(CCCC)c3=O)cc1)=C\CC[C@@]1(C)O[C@@H]21
0.443 µM

// fetch SW-620 colon TGI for NC(=O)c1cc(S(=O)(=O)Nc2nnc(-c3ccccc3)c(-c3ccccc3)n2)c(SCc2ccccc2)cc1Cl
> 100 µM

// fetch SW-620 colon TGI for Cn1cc(C2=C(c3cccc(Br)c3)C(=O)NC2=O)c2ccccc21
> 25 µM

// fetch SW-620 colon TGI for O=Cc1ccc2c(c1-c1c(C=O)ccc3c1OCO3)OCO2
> 100 µM
